- System: K4 kissing-loop RNA reporter;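 also: bound reporter read as fluorescence of individual clusters on recovered sequencing chips by microscopy, with normalized cluster intensities fitted with a binding model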
- EXPERIMENT_NOTES: apparent KD of K4 kissing-loop reporter; higher = weaker reporter binding
- MEASUREMENT_CONTEXT: Eterna round: R107; input ligand: arginine 13.2 mM
Label TRUE when apparent KD of K4 kissing-loop reporter is at or above 300 nM; otherwise label FALSE.

>  <SEQUENCE_RECORD>
CAUACCCAGUGAUGUUGGGUCGGUACCGAUACCAGUCGUACAGCCGACCCUUGGCAGCGGUAGCAUUGCCCGGCGUCGGCUUGUG [theeternabot_exclusion_KL_Theo_A_17]

>  <CAT>
TRUE

$$$$

Then this sequence:
Say whether AGUUUAGAGUGACUCGAUAAGAGUCACAAACGAGGACCGGUACGGCCGCCACUCGAAAUAACGAGAGUGAUGUUCUCGCUGGGCA [FiskerMod 3 - Jieux - Same State Tryptophan A] shows apparent KD of K4 kissing-loop reporter of 300 nM or more.
TRUE
